# System: 299254-011-R-J1-PDC complex spheroid viability;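 note: spheroids exposed to drugs for one week before measurement; percent viability relative to DMSO vehicle control taken as 100%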
# procedureText: Anticancer human tumor 299254-011-R-J1-PDC patient-derived melanoma cell line growth inhibition [POLQ]
# conditionContext: second compound 3.16 µM; first compound 1 µM; active compounds read low
Item-by-item account of viability, T/C

Worked examples, 2 compounds total:
compound	viability, T/C
C=CC(=O)N1CCN(c2nc(=O)n(-c3c(C)ccnc3C(C)C)c3nc(-c4c(O)cccc4F)c(F)cc23)C(C)C1 (stereo not given) + Cc1cccc(N(C)C(=O)C2C(O)CCN2c2nc(C)cc(C(F)(F)F)c2C#N)c1	70.1%
CNCc1ccc(-c2[nH]c3cc(F)cc4c3c2CCNC4=O)cc1 + Nc1ccc(C#CCN(C(=O)Cc2ncc(C(F)(F)F)cc2C(F)(F)F)c2ccc(F)cc2)nn1	95.9%

Task item: Please look at this compound and report its viability, T/C: COc1cccc2c1C(=O)c1c(O)c3c(c(O)c1C2=O)CC(O)(C(=O)CO)CC3OC1CC(N)C(O)C(C)O1 (stereo not given) + Nc1ccc(C#CCN(C(=O)Cc2ncc(C(F)(F)F)cc2C(F)(F)F)c2ccc(F)cc2)nn1
Reply: 42.7%

Task item: Please look at this compound and report its viability, T/C: COc1cccc2c1C(=O)c1c(O)c3c(c(O)c1C2=O)CC(O)(C(=O)CO)CC3OC1CC(N)C(O)C(C)O1 (stereo not given) + Cc1cccc(N(C)C(=O)C2C(O)CCN2c2nc(C)cc(C(F)(F)F)c2C#N)c1
Reply: 38.9%

Task item: Please look at this compound and report its viability, T/C: CCc1c2c(nc3ccc(O)cc13)-c1cc3c(c(=O)n1C2)COC(=O)[C@]3(O)CC + Cc1cccc(N(C)C(=O)C2C(O)CCN2c2nc(C)cc(C(F)(F)F)c2C#N)c1
Reply: 60%
